study.target: SARS-CoV-2 spike protein, extracellular domain (1-1213), recombinant from HEK293 cells (SARS-CoV-2, UniProt P0DTC2 14-1213)

{"binder": "HZI 2-06 (Anlec in dist. water; lectin batch isolated from bromelain) (other) MSGLVKLGLWGGNEGTLQDIDGHPTRLTKIVIRSAHAIDALQFDYVEDGKTFAAGQWGGNGGKSDTIEFQPGEYLIAIKGTTGALGAVTNLVRSLTFISNMRTYGPFGLEHGTPFSVPVASGRIVAFYGRFGSLVDAFGIYLMPY", "koff / s⁻¹": 0.008}
{"binder": "Acm-JRL 2 (Anlec in TBS, Batch 2) (other) MSGLVKLGLWGGNEGTLQDIDGHPTRLTKIVIRSAHAIDALQFDYVEDGKTFAAGQWGGNGGKSDTIEFQPGEYLIAIKGTTGALGAVTNLVRSLTFISNMRTYGPFGLEHGTPFSVPVASGRIVAFYGRFGSLVDAFGIYLMPY", "koff / s⁻¹": 0.003}
{"binder": "HZI 2-05 (Anlec in TBS; lectin batch isolated from bromelain) (other) MSGLVKLGLWGGNEGTLQDIDGHPTRLTKIVIRSAHAIDALQFDYVEDGKTFAAGQWGGNGGKSDTIEFQPGEYLIAIKGTTGALGAVTNLVRSLTFISNMRTYGPFGLEHGTPFSVPVASGRIVAFYGRFGSLVDAFGIYLMPY", "koff / s⁻¹": 0.005}
{"binder": "HZI 2-10 (Anlec in TBS; lectin batch isolated from bromelain, protease inhibited with MMTS) (other) MSGLVKLGLWGGNEGTLQDIDGHPTRLTKIVIRSAHAIDALQFDYVEDGKTFAAGQWGGNGGKSDTIEFQPGEYLIAIKGTTGALGAVTNLVRSLTFISNMRTYGPFGLEHGTPFSVPVASGRIVAFYGRFGSLVDAFGIYLMPY", "koff / s⁻¹": 0.003}
